target: Recombinant human his-tagged IGF 1R extracellular domain protein (human) (UniProt P08069); assay: SPR, captured antibody, dissociation at pH 6
pKd: −log10 of the molar value.

binder: VRDN-03054 (antibody, V domains shown) VH: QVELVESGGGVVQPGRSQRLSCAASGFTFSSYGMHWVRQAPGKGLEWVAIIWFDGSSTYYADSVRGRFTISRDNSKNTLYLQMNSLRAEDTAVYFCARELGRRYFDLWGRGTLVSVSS VL: EIVLTQSPATLSLSPGERATLSCRASQSVSSYLAWYQQKPGQAPRLLIYDASKRHTGIPARFSGSGSGTDFTLTISSLEPEDFAVYYCQQRSKWPPWTFGQGTKVESK
pKd: 9.06
--
binder: VRDN-03051 (antibody, V domains shown) VH: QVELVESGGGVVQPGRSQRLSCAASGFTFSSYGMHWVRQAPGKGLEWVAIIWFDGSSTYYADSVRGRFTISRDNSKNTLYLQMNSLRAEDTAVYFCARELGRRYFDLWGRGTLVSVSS VL: EIVLTQSPATLSLSPGERATLSCRASQSVSSYLAWYQQKPGQAPRLLIYDAHKRATGIPARFSGSGSGTDFTLTISSLEPEDFAVYYCQQRSKWPPWTFGQGTKVESK
pKd: 8.67
--
binder: VRDN-03055 (antibody, V domains shown) VH: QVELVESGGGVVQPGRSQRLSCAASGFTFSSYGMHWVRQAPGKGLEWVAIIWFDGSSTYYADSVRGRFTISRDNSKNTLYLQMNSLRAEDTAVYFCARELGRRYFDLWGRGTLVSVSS VL: EIVLTQSPATLSLSPGERATLSCRASQSVSSYLAWYQQKPGQAPRLLIYDASKRAHGIPARFSGSGSGTDFTLTISSLEPEDFAVYYCQQRSKWPPWTFGQGTKVESK
pKd: 8.79
--
binder: VRDN-03044 (antibody, V domains shown) VH: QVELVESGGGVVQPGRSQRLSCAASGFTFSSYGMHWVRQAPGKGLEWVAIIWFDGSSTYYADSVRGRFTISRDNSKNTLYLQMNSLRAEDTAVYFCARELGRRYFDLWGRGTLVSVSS VL: EIVLTQSPATLSLSPGERATLSCRASQSVHSYLAWYQQKPGQAPRLLIYDASKRATGIPARFSGSGSGTDFTLTISSLEPEDFAVYYCQQRSKWPPWTFGQGTKVESK
pKd: 8.42
--
binder: VRDN-03107 (antibody, V domains shown) VH: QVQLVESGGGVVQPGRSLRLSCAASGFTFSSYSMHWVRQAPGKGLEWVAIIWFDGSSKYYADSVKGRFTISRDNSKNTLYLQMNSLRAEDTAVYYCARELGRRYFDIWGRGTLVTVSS VL: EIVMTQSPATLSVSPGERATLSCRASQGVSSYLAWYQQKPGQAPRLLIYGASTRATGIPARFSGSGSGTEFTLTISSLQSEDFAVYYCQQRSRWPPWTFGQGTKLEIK
pKd: 8.85
--
binder: VRDN-03108 (antibody, V domains shown) VH: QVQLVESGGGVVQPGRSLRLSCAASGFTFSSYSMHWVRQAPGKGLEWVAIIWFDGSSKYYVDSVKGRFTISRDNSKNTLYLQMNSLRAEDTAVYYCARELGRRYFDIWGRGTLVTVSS VL: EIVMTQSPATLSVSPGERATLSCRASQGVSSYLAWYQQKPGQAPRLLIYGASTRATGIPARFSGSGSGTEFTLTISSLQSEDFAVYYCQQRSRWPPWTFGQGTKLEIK
pKd: 8.73
--
binder: VRDN-03105 (antibody, V domains shown) VH: QVQLVESGGGVVQPGRSLRLSCAASGFTFSDHYMDWVRQAPGKGLEWVAIIWFDGSSKYYVDSVKGRFTISRDNSKNTLYLQMNSLRAEDTAVYYCARELGRRYFDIWGRGTLVTVSS VL: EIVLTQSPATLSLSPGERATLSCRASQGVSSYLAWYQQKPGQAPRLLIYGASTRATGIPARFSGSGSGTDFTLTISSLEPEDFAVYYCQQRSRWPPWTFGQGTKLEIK
pKd: 8.70
--
binder: VRDN-03106 (antibody, V domains shown) VH: QVQLVESGGGVVQPGRSLRLSCAASGFTFSDHYMDWVRQAPGKGLEWVAIIWFDGSSKYYPGSVKGRFTISRDNSKNTLYLQMNSLRAEDTAVYYCARELGRRYFDIWGRGTLVTVSS VL: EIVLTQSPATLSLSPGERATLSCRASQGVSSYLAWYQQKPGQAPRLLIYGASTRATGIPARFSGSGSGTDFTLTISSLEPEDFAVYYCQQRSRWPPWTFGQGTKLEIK
pKd: 8.74
--
binder: VRDN-03045 (antibody, V domains shown) VH: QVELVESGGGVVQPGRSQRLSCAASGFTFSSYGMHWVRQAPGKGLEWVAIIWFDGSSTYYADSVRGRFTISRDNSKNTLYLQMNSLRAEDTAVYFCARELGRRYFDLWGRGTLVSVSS VL: EIVLTQSPATLSLSPGERATLSCRASQSVSHYLAWYQQKPGQAPRLLIYDASKRATGIPARFSGSGSGTDFTLTISSLEPEDFAVYYCQQRSKWPPWTFGQGTKVESK
pKd: 9.20
--
binder: VRDN-03110 (antibody, V domains shown) VH: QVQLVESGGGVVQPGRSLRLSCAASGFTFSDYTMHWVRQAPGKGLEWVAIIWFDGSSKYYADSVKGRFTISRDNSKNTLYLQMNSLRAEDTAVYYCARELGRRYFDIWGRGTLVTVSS VL: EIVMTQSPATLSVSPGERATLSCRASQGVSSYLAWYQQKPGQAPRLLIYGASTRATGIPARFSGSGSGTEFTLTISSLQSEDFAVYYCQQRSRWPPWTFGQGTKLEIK
pKd: 8.77
